Values from paper PMC4926326

tested on: MGC-803 gastric cancer cell line; experiment: MTT antiproliferative assay; format: cell-based, human; conditions: Homo sapiens, MGC-803, 72 h, MTT, 72 h, mean ± SD of three experiments; read-out: IC50 MGC-803
So I've got a bunch of compounds here, and I need their pIC50 values.
One number for each entry, as −log10 of the molar value.

// below: answered compounds
compound: C=C1C(=O)[C@@]23C(=O)O[C@H]4CCC(C)(C)[C@H]5[C@H](O)OC[C@@]45[C@@H]2CC[C@@H]1[C@H]3OC(=O)CCC(=O)OCCCCOc1no[n+]([O-])c1S(=O)(=O)c1ccccc1 [Compound 9g]
value.measured: 5.84
//
compound: C=C1C(=O)[C@@]23C(=O)O[C@H]4CCC(C)(C)[C@H]5[C@H](O)OC[C@@]45[C@@H]2CC[C@@H]1[C@H]3OC(=O)CCCC(=O)OCCOc1no[n+]([O-])c1S(=O)(=O)c1ccccc1 [Compound 9b]
value.measured: 5.79
//
compound: C=C1C(=O)[C@@]23C(=O)O[C@H]4CCC(C)(C)[C@H]5[C@H](O)OC[C@@]45[C@@H]2CC[C@@H]1[C@H]3OC(=O)CCCC(=O)OCCCOc1no[n+]([O-])c1S(=O)(=O)c1ccccc1 [Compound 9e]
value.measured: 5.89

Find the measured pIC50 of CC(=O)O[C@H]1C(=O)[C@@]2(C)[C@H]([C@H](OC(=O)c3ccccc3)[C@]3(O)C[C@H](OC(=O)[C@H](O)[C@@H](NC(=O)c4ccccc4)c4ccccc4)C(C)=C1C3(C)C)[C@]1(OC(C)=O)CO[C@@H]1C[C@@H]2O [Taxol, reference compound] and report it.
6.07
